Property: anti-MSR1 antibody blocking of Ox-LDL binding to His9-hMSR1 % Blocking; scope: individual molecules
Target: T1, Ox-LDL binding to His9-hMSR1 (Homo sapiens, UniProt P21757)
T1 construct: human MSR1 extracellular domain expressed with a N-terminal nonahistidine tag; His9 (nonahistidine) (N); purchased R&D Systems 2708-MS
T1 sequence (P21757 77-451 limits assumed): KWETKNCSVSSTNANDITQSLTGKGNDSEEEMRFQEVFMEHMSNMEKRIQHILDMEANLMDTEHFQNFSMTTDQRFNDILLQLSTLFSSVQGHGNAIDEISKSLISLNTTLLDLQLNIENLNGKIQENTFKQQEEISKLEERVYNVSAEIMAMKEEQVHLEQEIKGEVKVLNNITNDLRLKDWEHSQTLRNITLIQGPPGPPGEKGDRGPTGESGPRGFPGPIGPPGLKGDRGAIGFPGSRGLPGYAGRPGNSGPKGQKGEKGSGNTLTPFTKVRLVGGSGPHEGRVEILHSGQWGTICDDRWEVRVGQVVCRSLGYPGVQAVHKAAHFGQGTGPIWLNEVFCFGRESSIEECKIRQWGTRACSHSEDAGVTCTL
Test: Competition sandwich ELISA, blocking of Ox-LDL binding
Settings: antibody 500 nM, Ox-LDL 10 nM
Respond with the figure and its unit, in that order.

H1H21227N-N297Q: "modified versions of 21227N (H1H21227N-N297Q and H1H21227N-N297D)"; anti-MSR1 antibody "with a N297Q single point mutation" (antibody, V domains shown) VH: QVQLVQSGAEVKKPGASVKVSCKVSGYTLTELSIHWVRQVPGKGLEWMGGFDPEEGETIFAQEFRDRVTLTEDTSPDTAYMELSSLKSEDAAVYYCTTPRYCNNGICYDYWGQGTLVTVSS VL: DIQMTQSPSSLSASVGDRVTITCRASQSISNYLNWYQQKPGKAPKLLIYTASSLQSGVPSRFSGSGSGTDFTLTISSLQTEDFATYYCQQSYSNFPITFGQGTRLEIKR ... 97%

Then there is this molecule:
Which anti-MSR1 antibody blocking of Ox-LDL binding to His9-hMSR1 % Blocking value is on record for H1H21227N-N297D: "The 21227N antibody was also produced as a third version with a N297D mutation" (antibody, V domains shown) VH: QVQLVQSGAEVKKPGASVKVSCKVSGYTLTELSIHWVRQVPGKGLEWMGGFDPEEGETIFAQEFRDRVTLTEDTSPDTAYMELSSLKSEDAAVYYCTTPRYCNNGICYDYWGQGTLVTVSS VL: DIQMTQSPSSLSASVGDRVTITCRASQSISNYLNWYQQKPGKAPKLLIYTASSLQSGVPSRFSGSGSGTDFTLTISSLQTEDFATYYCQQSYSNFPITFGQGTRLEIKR ? 99%
